assay: Cytotoxicity of SBA, trypan blue dye-exclusion, U1 cells; type: cell-based; settings: human, SBA 800 µg/ml, read-out: Rate of survival of the cells (%)
Structures can show the parent of a compound that is named as a salt.
Observable: viability (%)
Use % as the unit, but write only the number.

input: Can you look up the measured viability of O=C1O[C@H]([C@@H]2COC(c3ccccc3)O2)C(O)=C1O (stereo partly shown) [SBA, mono-sodium salt] for me?
output: 83

---

Assay: Cytotoxicity of SBA, trypan blue dye-exclusion, A3.01 cells
Format: cell-based
Conditions: human, SBA 1000 µg/ml, read-out: Rate of survival of the cells (%)
Protocol: It is known that stimulation of HIV gene by TPA and tumor necrosis factor (TNF) can activate the HIV gene which is latent as the HIV-provirus within the T-cells as infected with HIV and said stimulation can thus strongly induce the progresses of sprouting and release of the viral particles of HIV. […] After the cultivation, the number of the cells under test which still survived was determined under a polarizing microscope by a trypan blue dye-exclusion method.
Structures can show the parent of a compound that is named as a salt.
Observable: viability

input: GET /values?readout=viability&item= O=C1O[C@H]([C@@H]2COC(c3ccccc3)O2)C(O)=C1O (stereo partly shown) [SBA, mono-sodium salt]
output: ~70%

---

assay: Cytotoxicity of SBA, trypan blue dye-exclusion, U1 cells; type: cell-based; conditions: human, SBA 100 µg/ml, read-out: Rate of survival of the cells (%)
Structures can show the parent of a compound that is named as a salt.
Observable: viability

input: Tell me the measured viability of O=C1O[C@H]([C@@H]2COC(c3ccccc3)O2)C(O)=C1O (stereo partly shown) [SBA, mono-sodium salt] , please.
output: 90%

---

assay: Cytotoxicity of SBA, trypan blue dye-exclusion, U1 cells; assay type: cell-based; details: human, SBA 1000 µg/ml, read-out: Rate of survival of the cells (%)
Structures can show the parent of a compound that is named as a salt.
Observable: viability (%)
Report the value in % with no unit label.

input: Which viability value is on record for O=C1O[C@H]([C@@H]2COC(c3ccccc3)O2)C(O)=C1O (stereo partly shown) [SBA, mono-sodium salt] ?
output: 92
